# Tested on: HCT-116
# test: Cytotoxicity against human HCT-116 cells assessed as reduction in cell proliferation at 10 uM measured after 3 days by MTT assay
# Type: functional, cell-based
# appliedConditions: time 3.0 day
The source made the active and inactive calls. The rule behind the calls is not given here.
measurementKind: Activity

> print(dat)
                             chemicalsmiles  systemtested  measurementkind  reportedresult
1  COC(=O)C1=C(O)c2ccccc2N(Cc2ccc(C)cc2)C(=O)C1       HCT-116         Activity          Active
2  COC(=O)C1=C(O)c2scc(C)c2N(Cc2ccc(C)c(F)c2)C(=O)C1       HCT-116         Activity          Active
3  COC(=O)C1=C(O)c2ccccc2N(Cc2ccc(OC)c(F)c2)C(=O)C1       HCT-116         Activity          Active
4  COC(=O)C1=C(O)c2ccccc2N(Cc2ccc(C)c(F)c2)C(=O)C1       HCT-116         Activity          Active

API: the following record is the query input.
-- ask What Activity value was documented for this compound, COC(=O)C1=C(O)c2ccccc2N(Cc2ccc(OC)cc2)C(=O)C1 ?
-- reply Active

====

# test: Induction of mitotic arrest in human RPE cells over expressing H2B-GFP-fused MYC assessed as increase in polyploidy at 40 uM measured after 24 to 72 hrs by fluorescence microscopy
# Assay type: functional
# appliedConditions: time 24-72 hrs
Activity: recorded values
Value expressed in %; do not type the unit.

As a guide, the following entries are already answered.
> print(dat)
                             chemicalsmiles  measurementkind  unittag  reportedresult
1  COC(=O)C1=C(O)c2ccccc2N(Cc2ccc(C(C)C)cc2)C(=O)C1         Activity        %              70
2  COC(=O)C1=C(O)c2ccccc2N(Cc2ccc(C(F)(F)F)cc2)C(=O)C1         Activity        %              30

-- ask What Activity value was documented for this compound, COC(=O)C1=C(O)c2ccccc2N(Cc2ccc(C)c(F)c2)C(=O)C1 ?
-- reply 30

-- ask What Activity value was documented for this compound, COC(=O)C1=C(O)c2ccccc2N(Cc2ccc(OC)c(F)c2)C(=O)C1 ?
-- reply 70

====

# test: Induction of mitotic arrest in human RPE cells over expressing H2B-GFP-fused MYC assessed as minimum effective concentration for polyploidy measured after 24 to 72 hrs by fluorescence microscopy
# Type: functional
# appliedConditions: time 24-72 hrs, read-out: MEC
measurementKind: minimal effective concentration (µM)
Value expressed in µM; do not type the unit.

As a guide, the following entries are already answered.
> print(dat)
                             chemicalsmiles  reportedresult
1  COC(=O)C1=C(O)c2ccccc2N(Cc2ccccc2)C(=O)C1              40
2  COC(=O)C1=C(O)c2ccccc2N(Cc2cccc(C)c2)C(=O)C1              40
3  COC(=O)C1=C(O)c2ccccc2N(Cc2ccc(C)c(Cl)c2)C(=O)C1               5
4  COC(=O)C1=C(O)c2cc(F)ccc2N(Cc2ccc(C)c(F)c2)C(=O)C1           0.078

-- ask What minimal effective concentration value was documented for this compound, COC(=O)C1=C(O)c2ccccc2N(Cc2ccc(C(C)C)cc2)C(=O)C1 ?
-- reply 20

-- ask What minimal effective concentration value was documented for this compound, COC(=O)C1=C(O)c2ccccc2N(Cc2ccc(C)c(F)c2)C(=O)C1 ?
-- reply 0.019

-- ask What minimal effective concentration value was documented for this compound, COC(=O)C1=C(O)c2ccccc2N(Cc2ccc(C)c(C)c2)C(=O)C1 ?
-- reply 20
